All figures here come from ChEMBL document CHEMBL1149292.

# assay-info: Plasma concentration in femoral artery cannulated Lewis rat at 3 mg/kg, po after 6 hrs
# Type: ADME, organism-based
# Parameters: dose 3 mg/kg, route oral
property: concentration at 6 h (nM)

INSERT INTO results (smiles_input, property, readout_number) VALUES
  ('O=C(O)C1CN(Cc2ccc(OCc3cc(-c4ccccc4)c(C(F)(F)F)s3)cc2)C1', 'concentration at 6 h', 380);

---

Quick reference for IC50 among some compounds
# system-under-test: Sphingosine 1-phosphate receptor 3 (Homo sapiens)
# Sequence (Q99500 whole entry): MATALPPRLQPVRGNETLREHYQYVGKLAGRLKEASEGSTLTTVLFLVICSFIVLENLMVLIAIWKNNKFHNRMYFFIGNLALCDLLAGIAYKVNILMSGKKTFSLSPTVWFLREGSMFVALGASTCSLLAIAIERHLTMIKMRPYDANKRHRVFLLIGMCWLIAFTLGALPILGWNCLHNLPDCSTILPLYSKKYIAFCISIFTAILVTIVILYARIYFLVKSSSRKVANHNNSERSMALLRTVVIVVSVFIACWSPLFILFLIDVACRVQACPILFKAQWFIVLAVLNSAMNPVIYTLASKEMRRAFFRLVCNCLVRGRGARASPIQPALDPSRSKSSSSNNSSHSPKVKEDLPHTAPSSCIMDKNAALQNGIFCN
# assay-info: Displacement of [33P]sphingosine 1 phosphate from human S1P3 receptor expressed in CHO cells
# Format: cell-based
property: IC50

INSERT INTO results (compound, system_under_test, result) VALUES
  ('CCCCCCCCc1ccc(CCC(N)(CO)CO)cc1', 'Sphingosine 1-phosphate receptor 3 (Homo sapiens)', '> 10 µM'),
  ('CCCCCCCCCc1ccc(CN2CC(C(=O)O)C2)cc1', 'Sphingosine 1-phosphate receptor 3 (Homo sapiens)', '4.9 µM (antagonist)'),
  ('O=C(O)C1CN(Cc2ccc(OCc3cc(-c4ccccc4)c(C(F)(F)F)s3)c(F)c2)C1', 'Sphingosine 1-phosphate receptor 3 (Homo sapiens)', '2.1 µM (antagonist)'),
  ('CCCCCCCCCc1ccc(CN2CCC(P(=O)(O)O)C2)cc1 (stereo unspecified)', 'Sphingosine 1-phosphate receptor 3 (Homo sapiens)', '0.22 µM (antagonist)'),
  ('O=C(O)C1CN(Cc2ccc(OCc3cc(-c4ccccc4)c(C(F)(F)F)s3)c(C(F)(F)F)c2)C1', 'Sphingosine 1-phosphate receptor 3 (Homo sapiens)', '> 10 µM'),
  ('FC(F)(F)c1sc(-c2nc(-c3ccccc3)no2)cc1-c1ccccc1', 'Sphingosine 1-phosphate receptor 3 (Homo sapiens)', '> 10 µM'),
  ('O=C(O)C1CN(Cc2cc(Cl)c(OCc3cc(-c4ccccc4)c(C(F)(F)F)s3)c(Cl)c2)C1', 'Sphingosine 1-phosphate receptor 3 (Homo sapiens)', '> 10 µM'),
  ('FC(F)(F)c1sc(-c2nc(-c3ccc(Cl)cc3Cl)no2)cc1-c1ccccc1', 'Sphingosine 1-phosphate receptor 3 (Homo sapiens)', '> 10 µM'),
  ('O=C(O)C1CN(Cc2ccc(OCc3cc(-c4ccccc4)c(C(F)(F)F)s3)c(Cl)c2)C1', 'Sphingosine 1-phosphate receptor 3 (Homo sapiens)', '2 µM (antagonist)'),
  ('Cc1cc(CN2CC(C(=O)O)C2)ccc1OCc1cc(-c2ccccc2)c(C(F)(F)F)s1', 'Sphingosine 1-phosphate receptor 3 (Homo sapiens)', '7.5 µM (antagonist)'),
  ('O=C(O)C1CN(Cc2ccc(OCc3cc(-c4ccccc4)c(C(F)(F)F)s3)cc2)C1', 'Sphingosine 1-phosphate receptor 3 (Homo sapiens)', '0.53 µM (antagonist)');

---

# assay-info: Plasma concentration in femoral artery cannulated Lewis rat at 3 mg/kg, po after 56 hrs
# Assay type: ADME, organism-based
# Design: dose 3 mg/kg, route oral
property: concentration at 56 h

INSERT INTO results (smiles_input, result) VALUES
  ('O=C(O)C1CN(Cc2ccc(OCc3cc(-c4ccccc4)c(C(F)(F)F)s3)cc2)C1', '10 nM');

---

# assay-info: Bioavailability in rhesus monkey at 1 mg/kg, po and 0.5 mg/kg, iv
# Assay type: ADME, organism-based, Macaca mulatta
# measurement-conditions: in vivo
property: bioavailability (%)

INSERT INTO assay_data (smiles_input, readout_number) VALUES
  ('Cc1cc(CN2CC(C(=O)O)C2)ccc1OCc1cc(-c2ccccc2)c(C(F)(F)F)s1', 96),
  ('O=C(O)C1CN(Cc2ccc(OCc3cc(-c4ccccc4)c(C(F)(F)F)s3)cc2)C1', 76);

---

# assay-info: Plasma concentration in femoral artery cannulated Lewis rat at 3 mg/kg, po after 16 hrs
# Format: ADME, organism-based
# Parameters: dose 3 mg/kg, route oral
property: concentration at 16 h (nM)

INSERT INTO measurements (smiles_input, readout_number) VALUES
  ('O=C(O)C1CN(Cc2ccc(OCc3cc(-c4ccccc4)c(C(F)(F)F)s3)cc2)C1', 170);

---

# system-under-test: Sphingosine 1-phosphate receptor 1 (Homo sapiens)
# Sequence (P21453 whole entry): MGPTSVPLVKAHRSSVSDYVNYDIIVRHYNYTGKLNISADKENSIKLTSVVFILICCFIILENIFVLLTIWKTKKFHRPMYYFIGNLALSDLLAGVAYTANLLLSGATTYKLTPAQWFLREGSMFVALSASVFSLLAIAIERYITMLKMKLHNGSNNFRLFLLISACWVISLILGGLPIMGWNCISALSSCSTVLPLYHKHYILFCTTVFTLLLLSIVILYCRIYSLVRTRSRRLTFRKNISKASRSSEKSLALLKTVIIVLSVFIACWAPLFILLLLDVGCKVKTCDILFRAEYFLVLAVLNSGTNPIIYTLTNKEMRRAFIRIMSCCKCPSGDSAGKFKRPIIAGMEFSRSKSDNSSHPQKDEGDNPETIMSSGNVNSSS
# assay-info: Displacement of [33P]sphingosine 1 phosphate from human S1P1 receptor expressed in CHO cells
# Assay type: cell-based
property: IC50

INSERT INTO results (compound, system_under_test, property, result) VALUES
  ('O=C(O)C1CN(Cc2ccc(OCc3cc(-c4ccccc4)c(C(F)(F)F)s3)c(F)c2)C1', 'Sphingosine 1-phosphate receptor 1 (Homo sapiens)', 'IC50', '2.7 nM (antagonist)'),
  ('FC(F)(F)c1sc(-c2nc(-c3ccc(Cl)cc3Cl)no2)cc1-c1ccccc1', 'Sphingosine 1-phosphate receptor 1 (Homo sapiens)', 'IC50', '78 nM (antagonist)'),
  ('O=C(O)C1CN(Cc2cc(Cl)c(OCc3cc(-c4ccccc4)c(C(F)(F)F)s3)c(Cl)c2)C1', 'Sphingosine 1-phosphate receptor 1 (Homo sapiens)', 'IC50', '7.5 nM (antagonist)'),
  ('COc1cc(CN2CC(C(=O)O)C2)ccc1OCc1cc(-c2ccccc2)c(C(F)(F)F)s1', 'Sphingosine 1-phosphate receptor 1 (Homo sapiens)', 'IC50', '33 nM (antagonist)'),
  ('O=C(O)C1CCN(Cc2ccc(OCc3cc(-c4ccccc4)c(C(F)(F)F)s3)cc2)C1 (configuration not stated)', 'Sphingosine 1-phosphate receptor 1 (Homo sapiens)', 'IC50', '4.3 nM (antagonist)'),
  ('O=C(O)C1CN(Cc2ccc(OCc3cc(-c4ccccc4)c(C(F)(F)F)s3)c(Cl)c2)C1', 'Sphingosine 1-phosphate receptor 1 (Homo sapiens)', 'IC50', '3.2 nM (antagonist)'),
  ('CCc1cc(CN2CC(C(=O)O)C2)ccc1OCc1cc(-c2ccccc2)c(C(F)(F)F)s1', 'Sphingosine 1-phosphate receptor 1 (Homo sapiens)', 'IC50', '3.5 nM (antagonist)'),
  ('O=C(O)C1CN(Cc2ccc(-c3noc(-c4cc(-c5ccccc5)c(C(F)(F)F)s4)n3)cc2)C1', 'Sphingosine 1-phosphate receptor 1 (Homo sapiens)', 'IC50', '8.3 nM (antagonist)'),
  ('O=C(O)C1CN(Cc2ccc(OCc3cc(-c4ccccc4)c(C(F)(F)F)s3)cc2)C1', 'Sphingosine 1-phosphate receptor 1 (Homo sapiens)', 'IC50', '1.2 nM (antagonist)'),
  ('Cc1cc(CN2CC(C(=O)O)C2)cc(C)c1OCc1cc(-c2ccccc2)c(C(F)(F)F)s1', 'Sphingosine 1-phosphate receptor 1 (Homo sapiens)', 'IC50', '4 nM (antagonist)'),
  ('CCCCCCCCCc1ccc(CN2CCC(P(=O)(O)O)C2)cc1 (configuration not stated)', 'Sphingosine 1-phosphate receptor 1 (Homo sapiens)', 'IC50', '6.9 nM (antagonist)'),
  ('CCCCCCCCCc1ccc(CN2CCC(C(=O)O)C2)cc1 (configuration not stated)', 'Sphingosine 1-phosphate receptor 1 (Homo sapiens)', 'IC50', '20 nM (antagonist)');
